target_system: Kappa-type opioid receptor (Homo sapiens)
experiment_summary: Displacement of [3H]diprenorphine from human KOP receptor expressed in CHO cell membrane
Assay type: cell membranes
pKi: −log10 of the molar value.
Quick rule: pKi of at least 6 means y, below that means n.

# compound, target_system, label
rows = [
    ("NCc1ccccc1C1(O)CCN(C(c2ccccc2F)c2ccccc2F)CC1", "Kappa-type opioid receptor (Homo sapiens)", "y"),
    ("CCCc1ccc(C2(O)CCN(C(c3ccccc3)c3ccccc3)CC2)cc1", "Kappa-type opioid receptor (Homo sapiens)", "n"),
    ("CCCCCCC1(O)CCN(C(c2ccccc2)c2ccccc2)CC1", "Kappa-type opioid receptor (Homo sapiens)", "n"),
    ("N#Cc1ccc(C2(O)CCN(C(c3ccccc3)c3ccccc3)CC2)cc1", "Kappa-type opioid receptor (Homo sapiens)", "n"),
    ("NCc1ccccc1C1(O)CCN(C(c2ccccc2)c2ccccc2Br)CC1 (stereo unspecified)", "Kappa-type opioid receptor (Homo sapiens)", "y"),
    ("CC(C)S(=O)(=O)NCc1ccccc1C1(O)CCN(C(c2ccccc2Cl)c2ccccc2Cl)CC1", "Kappa-type opioid receptor (Homo sapiens)", "y"),
    ("OC1(c2ccc(Cl)cc2)CCN(C(c2ccccc2)c2ccccc2)CC1", "Kappa-type opioid receptor (Homo sapiens)", "n"),
    ("CC(C)C1(O)CCN(C(c2ccccc2)c2ccccc2)CC1", "Kappa-type opioid receptor (Homo sapiens)", "n"),
    ("Cc1ccc(C2(O)CCN(C(c3ccccc3)c3ccccc3)CC2)cc1", "Kappa-type opioid receptor (Homo sapiens)", "n"),
    ("OC1(C2CC2)CCN(C(c2ccccc2)c2ccccc2)CC1", "Kappa-type opioid receptor (Homo sapiens)", "n"),
    ("OCc1ccccc1C1(O)CCN(C(c2ccccc2)c2ccccc2)CC1", "Kappa-type opioid receptor (Homo sapiens)", "n"),
    ("CNCc1ccccc1C1(O)CCN(C(c2ccccc2Cl)c2ccccc2Cl)CC1", "Kappa-type opioid receptor (Homo sapiens)", "y"),
    ("CCNC(=O)NCc1ccccc1C1(O)CCN(C(c2ccccc2Cl)c2ccccc2Cl)CC1", "Kappa-type opioid receptor (Homo sapiens)", "y"),
    ("COc1ccccc1C1(O)CCN(C(c2ccccc2)c2ccccc2)CC1", "Kappa-type opioid receptor (Homo sapiens)", "n"),
    ("CCCCC(c1ccccc1)N1CCC(O)(c2ccccc2CN)CC1 (stereo unspecified)", "Kappa-type opioid receptor (Homo sapiens)", "y"),
    ("CNC(=O)NCc1ccccc1C1(O)CCN(C(c2ccccc2Cl)c2ccccc2Cl)CC1", "Kappa-type opioid receptor (Homo sapiens)", "y"),
    ("NCc1ccccc1C1(O)CCN(C(c2ccccc2)c2ccccc2)CC1", "Kappa-type opioid receptor (Homo sapiens)", "n"),
]

====

target_system: Kappa-type opioid receptor (Homo sapiens, UniProt P41145)
Sequence (P41145 whole entry): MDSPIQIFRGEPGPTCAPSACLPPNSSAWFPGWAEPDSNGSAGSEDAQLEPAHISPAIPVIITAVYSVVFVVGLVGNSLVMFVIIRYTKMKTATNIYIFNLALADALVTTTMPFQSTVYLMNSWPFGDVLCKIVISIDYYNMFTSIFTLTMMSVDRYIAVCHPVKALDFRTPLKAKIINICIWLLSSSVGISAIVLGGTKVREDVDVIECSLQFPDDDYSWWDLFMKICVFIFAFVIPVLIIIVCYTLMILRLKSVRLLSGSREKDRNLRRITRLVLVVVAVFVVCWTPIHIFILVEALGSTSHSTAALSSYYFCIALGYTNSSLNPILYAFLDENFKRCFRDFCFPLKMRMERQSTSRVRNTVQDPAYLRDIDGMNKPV
experiment_summary: Displacement of [3H]diprenorphine from human KOP receptor expressed in CHO cell membrane
Format: cell membranes
pKi: −log10 of the molar value.
property_label: pKi

# structure_smiles, experimental_result
data = [
    ("Cc1ccsc1C1(O)CCN(C(c2ccccc2)c2ccccc2)CC1", 5.59),
    ("COc1cccc(C2(O)CCN(C(c3ccccc3)c3ccccc3)CC2)c1", 5.44),
    ("NCc1ccccc1C1(O)CCN(C(c2ccccc2Br)c2ccccc2Br)CC1", 6.56),
    ("OC1(c2ccc(Br)cc2)CCN(C(c2ccccc2)c2ccccc2)CC1", 5.58),
    ("Cc1ccccc1C(c1ccccc1C)N1CCC(O)(c2ccccc2CN)CC1", 6.35),
    ("OC1(c2ccccc2F)CCN(C(c2ccccc2)c2ccccc2)CC1", 5.76),
    ("NCc1ccccc1C1(O)CCN(CC2CCCCCC2)CC1", 6.18),
    ("Cc1ccc(C(c2ccc(C)cc2)N2CCC(O)(c3ccccc3CN)CC2)cc1", 5.98),
    ("CCCS(=O)(=O)NCc1ccccc1C1(O)CCN(C(c2ccccc2Cl)c2ccccc2Cl)CC1", 6.91),
    ("OC1(CCCc2ccccc2)CCN(C(c2ccccc2)c2ccccc2)CC1", 5.74),
    ("OC1(c2ccccc2CN2CCOCC2)CCN(C(c2ccccc2Cl)c2ccccc2Cl)CC1", 6.49),
]

====

target_system: Mu-type opioid receptor (Homo sapiens, UniProt P35372)
Sequence (P35372 whole entry): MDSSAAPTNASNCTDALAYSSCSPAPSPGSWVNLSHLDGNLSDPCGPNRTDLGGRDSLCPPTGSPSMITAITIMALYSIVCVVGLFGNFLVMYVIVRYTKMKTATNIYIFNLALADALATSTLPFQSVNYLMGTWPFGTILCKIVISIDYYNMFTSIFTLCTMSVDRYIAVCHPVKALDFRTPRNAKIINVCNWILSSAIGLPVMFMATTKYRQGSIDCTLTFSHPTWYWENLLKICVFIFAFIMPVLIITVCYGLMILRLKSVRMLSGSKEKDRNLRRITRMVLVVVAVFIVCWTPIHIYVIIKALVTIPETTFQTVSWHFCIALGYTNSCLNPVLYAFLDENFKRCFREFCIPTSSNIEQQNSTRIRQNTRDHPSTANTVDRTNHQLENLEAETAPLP
experiment_summary: Displacement of [3H]diprenorphine from human MOP receptor expressed in CHO cell membrane
Format: cell membranes
property_label: log10 Ki (log10 of the value in µM)

# compound, log10 Ki
data = [
    ("OC1(c2ccccc2F)CCN(C(c2ccccc2)c2ccccc2)CC1", -0.23),
    ("CNC(=O)NCc1ccccc1C1(O)CCN(C(c2ccccc2Cl)c2ccccc2Cl)CC1", -0.70),
    ("OC1(c2ccc(Cl)cc2)CCN(C(c2ccccc2)c2ccccc2)CC1", -0.03),
    ("Cc1ccsc1C1(O)CCN(C(c2ccccc2)c2ccccc2)CC1", -0.12),
    ("Cc1ccccc1C(c1ccccc1)N1CCC(O)(c2ccccc2CN)CC1 (configuration not stated)", -1.55),
    ("Cc1ccccc1C(c1ccccc1C)N1CCC(O)(c2ccccc2CN)CC1", -0.72),
    ("CCCS(=O)(=O)NCc1ccccc1C1(O)CCN(C(c2ccccc2Cl)c2ccccc2Cl)CC1", -0.57),
    ("NCc1ccccc1C1(O)CCN(C(c2ccccc2Br)c2ccccc2Br)CC1", -0.21),
    ("NCc1ccccc1C1(O)CCN(C(c2ccccc2Cl)c2ccccc2Cl)CC1", -0.60),
    ("OC1(c2ccccc2CN2CCOCC2)CCN(C(c2ccccc2Cl)c2ccccc2Cl)CC1", -0.92),
    ("NCc1ccccc1C1(O)CCN(C(c2ccccc2F)c2ccccc2F)CC1", -1.43),
    ("OCc1ccccc1C1(O)CCN(C(c2ccccc2)c2ccccc2)CC1", -0.73),
    ("Cc1ccccc1C1(O)CCN(C(c2ccccc2)c2ccccc2)CC1", -1.13),
    ("OC1(c2ccccn2)CCN(C(c2ccccc2)c2ccccc2)CC1", 1.06),
    ("CCCc1ccc(C2(O)CCN(C(c3ccccc3)c3ccccc3)CC2)cc1", 1.06),
    ("CC1(C)CCC(N2CCC(O)(c3ccccc3CN)CC2)c2ccccc21 (configuration not stated)", -0.74),
    ("COc1cccc(C2(O)CCN(C(c3ccccc3)c3ccccc3)CC2)c1", 0.48),
    ("NCc1ccccc1C1(O)CCN(C(c2ccccc2)c2ccccc2)CC1", -0.90),
    ("NCc1ccccc1C1(O)CCN(C(c2cccc(F)c2)c2cccc(F)c2)CC1", -0.21),
    ("Cc1cccc(C2(O)CCN(C(c3ccccc3)c3ccccc3)CC2)c1", -0.56),
    ("CN1CCN(Cc2ccccc2C2(O)CCN(C(c3ccccc3Cl)c3ccccc3Cl)CC2)CC1", -0.72),
    ("CCCCC(c1ccccc1)N1CCC(O)(c2ccccc2CN)CC1 (configuration not stated)", -2.70),
]

====

target_system: Mu-type opioid receptor (Homo sapiens, UniProt P35372)
experiment_summary: Displacement of [3H]diprenorphine from human MOP receptor expressed in CHO cell membrane
Type: cell membranes
pKi: −log10 of the molar value.
Quick rule: pKi of at least 6 means MET, below that means NOT MET.

# compound, label
data = [
    ("N#Cc1ccc(C2(O)CCN(C(c3ccccc3)c3ccccc3)CC2)cc1", "NOT MET"),
    ("CCNC(=O)NCc1ccccc1C1(O)CCN(C(c2ccccc2Cl)c2ccccc2Cl)CC1", "MET"),
    ("NCc1ccccc1C1(O)CCN(C(c2ccccc2)c2ccccc2Cl)CC1 (stereo not drawn)", "MET"),
    ("CC(C)(C)C1(O)CCN(C(c2ccccc2)c2ccccc2)CC1", "NOT MET"),
    ("CC(C)S(=O)(=O)NCc1ccccc1C1(O)CCN(C(c2ccccc2Cl)c2ccccc2Cl)CC1", "MET"),
]

====

target_system: UniProt P41146
Sequence (P41146 whole entry): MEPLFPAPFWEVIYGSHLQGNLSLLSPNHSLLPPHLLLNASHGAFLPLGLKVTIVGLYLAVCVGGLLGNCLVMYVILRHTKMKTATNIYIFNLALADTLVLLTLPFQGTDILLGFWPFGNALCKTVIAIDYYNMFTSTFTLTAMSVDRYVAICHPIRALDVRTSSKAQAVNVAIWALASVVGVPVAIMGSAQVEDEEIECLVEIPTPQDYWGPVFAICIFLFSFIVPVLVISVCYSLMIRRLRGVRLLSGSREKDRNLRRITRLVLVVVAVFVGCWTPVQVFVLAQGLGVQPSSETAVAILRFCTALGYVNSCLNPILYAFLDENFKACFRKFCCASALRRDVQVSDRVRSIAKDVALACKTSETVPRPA
experiment_summary: Displacement of [125I][Tyr14]nociceptin FQ from human NOP receptor expressed in CHO cell membrane
Type: cell membranes
property_label: log10(Ki) (log10 of the value in nM)

# molecule, experimental_result
records = [
    ("CN(C)c1ccc(C2(O)CCN(C(c3ccccc3)c3ccccc3)CC2)cc1", 3.66),
    ("NCc1ccccc1C1(O)CCN(C(c2ccccc2F)c2ccccc2F)CC1", -0.30),
    ("CC(C)C1(O)CCN(C(c2ccccc2)c2ccccc2)CC1", 2.64),
    ("Cc1ccsc1C1(O)CCN(C(c2ccccc2)c2ccccc2)CC1", 1.18),
    ("NCc1ccccc1C1(O)CCN(C(c2ccccc2)c2ccccc2Cl)CC1 (configuration not stated)", -0.30),
    ("CC1(C)CCC(N2CCC(O)(c3ccccc3CN)CC2)c2ccccc21 (configuration not stated)", 0.74),
    ("OC1(c2ccco2)CCN(C(c2ccccc2)c2ccccc2)CC1", 2.13),
    ("CCCCCC(c1ccccc1)N1CCC(O)(c2ccccc2CN)CC1 (configuration not stated)", -0.30),
    ("CNC(=O)NCc1ccccc1C1(O)CCN(C(c2ccccc2Cl)c2ccccc2Cl)CC1", 0.30),
    ("NCc1ccccc1C1(O)CCN(C(c2ccccc2Br)c2ccccc2Br)CC1", 0.26),
    ("NCc1ccccc1C1(O)CCN(C(c2cccc(F)c2)c2cccc(F)c2)CC1", 0.98),
    ("OC1(c2ccccc2F)CCN(C(c2ccccc2)c2ccccc2)CC1", 1.53),
    ("Cc1ccccc1C(c1ccccc1)N1CCC(O)(c2ccccc2CN)CC1 (configuration not stated)", -0.15),
    ("NCc1ccccc1C1(O)CCN(C(c2ccc(Cl)cc2)c2ccc(Cl)cc2)CC1", 2.83),
    ("OC1(C2CC2)CCN(C(c2ccccc2)c2ccccc2)CC1", 2.58),
    ("Cc1ccccc1C(c1ccccc1C)N1CCC(O)(c2ccccc2CN)CC1", -0.30),
    ("CC(C)S(=O)(=O)N1CCN(Cc2ccccc2C2(O)CCN(C(c3ccccc3Cl)c3ccccc3Cl)CC2)CC1", -0.22),
    ("NCc1ccccc1C1(O)CCN(C(c2ccccc2)c2ccccc2Br)CC1 (configuration not stated)", 0.04),
    ("CN1CCN(Cc2ccccc2C2(O)CCN(C(c3ccccc3Cl)c3ccccc3Cl)CC2)CC1", 0.34),
    ("OC1(C2CCCCC2)CCN(C(c2ccccc2)c2ccccc2)CC1", 1.23),
    ("NCc1ccccc1C1(O)CCN(C(c2ccccc2Cl)c2ccccc2Cl)CC1", -0.30),
    ("OC1(Cc2ccccc2)CCN(C(c2ccccc2)c2ccccc2)CC1", 3.34),
]
